Values compiled from patent US20220356255A1.

Target: T1, human PD-L1 on cells (human, UniProt Q9NZQ7 19-290)
T1 construct: Endogenous on MDA-MB-231 cells or transfected into HEK293FF cells (Sino Biological plasmid); the assay field says which; also called native PD-L1 on MDA-MB-231 cells; PD-L1 expressing MDA-MB-231 cells
T1 sequence (Q9NZQ7 19-290 limits assumed): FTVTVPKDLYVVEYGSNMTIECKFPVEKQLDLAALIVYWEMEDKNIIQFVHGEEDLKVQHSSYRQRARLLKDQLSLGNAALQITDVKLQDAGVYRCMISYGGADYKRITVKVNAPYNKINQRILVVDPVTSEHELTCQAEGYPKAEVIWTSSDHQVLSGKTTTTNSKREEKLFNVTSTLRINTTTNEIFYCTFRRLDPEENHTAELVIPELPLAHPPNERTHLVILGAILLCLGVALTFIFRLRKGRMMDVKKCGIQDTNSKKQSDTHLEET
Experiment: flow cytometry on MDA-MB-231 cells, Krebs buffer, pH 6.5
Listed next: entries and their corresponding EC50.
Value expressed in nM; do not type the unit.

Previously resolved entries follow.
Fab 8D06 (Fab, V domains shown, Purified Fab prepared from IgG with the Pierce kit; also called 8D06 Fab) VH: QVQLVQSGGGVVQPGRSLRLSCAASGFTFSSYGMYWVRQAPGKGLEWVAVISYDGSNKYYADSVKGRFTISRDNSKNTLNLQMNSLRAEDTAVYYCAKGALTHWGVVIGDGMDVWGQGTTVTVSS VL: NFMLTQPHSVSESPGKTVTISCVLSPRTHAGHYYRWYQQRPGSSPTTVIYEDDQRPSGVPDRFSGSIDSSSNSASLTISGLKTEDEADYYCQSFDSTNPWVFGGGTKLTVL; 2.92
Fab 8B06 (Fab, V domains shown, Purified Fab prepared from IgG with the Pierce kit; also called 8B06 Fab) VH: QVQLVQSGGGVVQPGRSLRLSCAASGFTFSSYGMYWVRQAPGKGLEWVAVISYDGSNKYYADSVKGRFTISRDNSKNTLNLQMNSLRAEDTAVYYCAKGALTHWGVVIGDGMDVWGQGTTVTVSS VL: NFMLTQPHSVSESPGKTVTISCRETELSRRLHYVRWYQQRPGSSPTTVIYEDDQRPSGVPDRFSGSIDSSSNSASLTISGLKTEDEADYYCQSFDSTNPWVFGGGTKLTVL; 6.4
Fab 8G08 (Fab, V domains shown, Purified Fab prepared from IgG with the Pierce kit; also called 8G08 Fab) VH: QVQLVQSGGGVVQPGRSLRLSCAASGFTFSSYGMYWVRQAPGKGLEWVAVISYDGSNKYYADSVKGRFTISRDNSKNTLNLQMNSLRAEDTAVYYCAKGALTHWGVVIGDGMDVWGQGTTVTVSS VL: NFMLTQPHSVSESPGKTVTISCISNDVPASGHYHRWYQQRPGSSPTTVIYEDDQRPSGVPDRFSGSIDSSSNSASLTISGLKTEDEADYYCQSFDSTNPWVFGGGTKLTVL; 2.95
Fab 8D04 (Fab, V domains shown, Purified Fab prepared from IgG with the Pierce kit; also called 8D04 Fab) VH: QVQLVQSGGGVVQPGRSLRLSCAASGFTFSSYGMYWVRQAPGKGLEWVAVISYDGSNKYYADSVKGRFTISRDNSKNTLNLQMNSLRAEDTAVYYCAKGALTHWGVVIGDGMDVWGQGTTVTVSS VL: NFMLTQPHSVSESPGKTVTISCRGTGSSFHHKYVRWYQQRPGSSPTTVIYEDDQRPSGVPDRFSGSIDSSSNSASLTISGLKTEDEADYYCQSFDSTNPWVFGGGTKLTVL; 56.4

Next binder, EC50 to be filled in.
Which value of EC50 has been reported for Fab 8A04 (Fab, V domains shown, Purified Fab prepared from IgG with the Pierce kit; also called 8A04 Fab) VH: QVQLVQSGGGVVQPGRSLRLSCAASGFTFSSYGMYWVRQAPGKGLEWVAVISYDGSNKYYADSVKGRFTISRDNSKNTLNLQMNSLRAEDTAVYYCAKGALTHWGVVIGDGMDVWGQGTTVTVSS VL: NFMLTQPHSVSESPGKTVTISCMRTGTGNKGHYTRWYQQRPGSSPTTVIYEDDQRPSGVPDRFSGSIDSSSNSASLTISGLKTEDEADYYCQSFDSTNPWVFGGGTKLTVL in the records?
6.62
